- System: 786-0 renal
- Run Description: NCI-60 one-dose screen, 48 h (100 = growth as untreated, 0 = no growth, -100 = all killed)
- Condition Details: 10 µM unless noted
- Method: Cells are grown in 96 well plates and exposed to the test compound for 48 hours. Compounds are tested at a single concentration, which is 10^-5 M for most compounds. The reported endpoint is percent growth (GI% or GIPRCNT), where numbers from 0 - 100% represent growth inhibition, and numbers from -100% - 0 represent cell death. For example, a value of 40 represents 60% growth inhibition. A value of 0 means no net growth occurred over the course of the experiment. […]
About 83,000 compounds went through this panel and 20% of them were active in at least one assay; those are over-represented in the sample as a whole.
Assay Metric: growth (%)

INSERT INTO results (compound, tested_target, number) VALUES
  ('Cc1ccc(S(=O)(=O)NCCCNc2nccc(-c3c(-c4ccccc4)nc4sccn34)n2)cc1', '786-0 renal', 38.7),
  ('CC(C)(C)c1cn2cccc(C(=O)N3CCN(CC(=O)Nc4ccc(Cl)cc4C(=O)c4ccccc4Cl)CC3)c2n1', '786-0 renal', 55.3),
  ('CN1CCN(CCCOc2ccc3nc(Nc4ccc(C(F)(F)F)c(Cl)c4)ccc3c2)CC1', '786-0 renal', -60.9),
  ('Clc1ccc([I+]c2ccc(Cl)cc2Cl)c(Cl)c1', '786-0 renal', 11.2),
  ('N#Cc1c(NC(=O)c2ccc([N+](=O)[O-])o2)[n+]([O-])c2cc(F)c(F)cc2[n+]1[O-]', '786-0 renal', 110),
  ('Cc1ccnc2nc(C(=O)OCC(=O)Nc3ccc(-c4ccccc4)cc3)nn12', '786-0 renal', 99.8),
  ('CC(=O)Nc1nc(C(=O)N2N=C(C)/C(=C/c3ccccc3)C2=O)cs1', '786-0 renal', 105),
  ('O=C1Nc2cc(Cl)ccc2/C1=C/c1ccc(N2CCOCC2)s1', '786-0 renal', 88.5),
  ('CCOC(=O)CC/C(C)=N\Nc1ccc([N+](=O)[O-])cc1', '786-0 renal', 72.9),
  ('CCCCCCCCCCn1cc[n+](C)c1', '786-0 renal', 47.8),
  ('Cc1ccc2c(c1)ncn2-c1ncnc2c1CC(C)c1ccccc1N2C (stereo not given)', '786-0 renal', 24.9),
  ('COc1cc(-c2nc(-c3nc4ccccc4[nH]3)cc3c2[nH]c2ccccc23)cc(OC)c1OC', '786-0 renal', 82.6),
  ('COc1ccc(-c2nc3sccn3c2-c2ccnc(NCCCNS(=O)(=O)c3ccc4ccccc4c3)n2)cc1', '786-0 renal', 67.6),
  ('Cc1nc(Nc2cccnc2)sc1C(=O)/C=C/c1ccc(Cl)cc1', '786-0 renal', 12.3),
  ('COc1ncc(-c2ccc3ncnc(Nc4cccc(Cl)c4)c3c2)cc1NS(=O)(=O)C1CC1', '786-0 renal', 62.6),
  ('COc1cc(/C=C/C(=O)c2ccccc2O)ccc1OCCCOc1cc2c(cc1OC)C(=O)N1CCC[C@H]1C=N2', '786-0 renal', -44.8),
  ('COc1cc2nc(SCc3cc(OC)c(OC)c(OC)c3)n(Cc3ccccc3)c(=O)c2cc1OC', '786-0 renal', 36.8),
  ('CC(C)CCN(CCCNc1c2c(nc3ccccc13)CCCC2)CCC(C)C', '786-0 renal', 77.6),
  ('CCC(=O)Nc1ccccc1C#C/C=C\C#Cc1ccccc1SC', '786-0 renal', 87.7),
  ('COc1cc2oc(-c3cccc(NC(=O)Nc4ccc5c(c4)OCO5)c3)cc(=O)c2c(OC)c1OC', '786-0 renal', 65.1);
